# System: PPARg:RXRa 30nM:10nM, anti-RXR (NR concentration 30 nM, RXRa partner concentration 10 nM)
# test-method-notes: PBM binding z-score (relative to random genomic background probes); higher = stronger binding; sequences stand for … in GC…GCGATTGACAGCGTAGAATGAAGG
measurement-name: PBM binding z-score

Some sequences with recorded PBM binding z-score:
construct-sequence: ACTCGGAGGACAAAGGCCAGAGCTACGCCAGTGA
PBM binding z-score: 0.441
//
construct-sequence: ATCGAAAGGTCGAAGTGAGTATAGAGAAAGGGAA
PBM binding z-score: 1.33
//
construct-sequence: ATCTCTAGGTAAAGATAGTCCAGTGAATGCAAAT
PBM binding z-score: 0.157
//
construct-sequence: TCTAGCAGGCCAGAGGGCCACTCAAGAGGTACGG
PBM binding z-score: 1.77

[Q] So what does the record say about PBM binding z-score for "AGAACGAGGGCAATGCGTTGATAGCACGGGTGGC" ?
[A] -0.109

[Q] Query "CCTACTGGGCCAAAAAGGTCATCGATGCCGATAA" next
[A] 2.07

[Q] Query "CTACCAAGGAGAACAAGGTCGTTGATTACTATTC" next
[A] -0.107

[Q] Query "CGAACTAAGTCAGAACAGGACAGTGAAGGATGAT" next
[A] 0.171

[Q] Query "AGTCAAAGTTCATCTAGGTAACGTTAGATATGCT" next
[A] 3.3

[Q] Query "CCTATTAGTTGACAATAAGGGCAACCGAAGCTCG" next
[A] 0.0655

[Q] Query "GATACAGGGTCAAGGCCAGTGTACGCGTATTGAT" next
[A] 2.44

[Q] Query "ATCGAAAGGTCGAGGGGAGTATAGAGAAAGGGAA" next
[A] 1.13

* * *

# Tested on: PPARg:RXRa 90nM:30nM, anti-RXR (NR concentration 90 nM, RXRa partner concentration 30 nM)
# test-method-notes: PBM binding z-score (relative to random genomic background probes); higher = stronger binding; sequences stand for … in GC…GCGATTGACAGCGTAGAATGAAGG
// values below are reported PBM binding z-score
// no unit, no text: just the number

construct-sequence: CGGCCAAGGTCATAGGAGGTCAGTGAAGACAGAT
PBM binding z-score: 4.77
--
construct-sequence: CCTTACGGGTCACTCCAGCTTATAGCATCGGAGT
PBM binding z-score: 2.44
--
construct-sequence: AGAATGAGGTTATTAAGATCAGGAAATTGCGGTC
PBM binding z-score: 1.47

[Q] So what does the record say about PBM binding z-score for "TCTAGTTGGTCACGGAGGTTACACACGACGGGTA" ?
[A] 2.73

[Q] Query "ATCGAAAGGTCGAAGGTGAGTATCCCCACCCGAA" next
[A] 3.58

[Q] Query "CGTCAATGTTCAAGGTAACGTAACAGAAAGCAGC" next
[A] 0.00705

[Q] Query "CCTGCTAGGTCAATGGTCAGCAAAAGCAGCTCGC" next
[A] 4.66

[Q] Query "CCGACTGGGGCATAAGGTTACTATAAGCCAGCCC" next
[A] 2.34

[Q] Query "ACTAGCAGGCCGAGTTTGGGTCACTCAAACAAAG" next
[A] -0.461

[Q] Query "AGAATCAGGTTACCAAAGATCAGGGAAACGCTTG" next
[A] 0.466

[Q] Query "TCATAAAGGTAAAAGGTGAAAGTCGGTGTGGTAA" next
[A] 6.73

[Q] Query "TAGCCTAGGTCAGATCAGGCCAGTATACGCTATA" next
[A] 0.604
